assayName: Superoxide scavenging assay
Assay type: biochemical
conditions: 80 µM, 590 nm
metricName: % Inhibition, superoxide (%)
# number only, unit % dropped from output

Below, 3 molecules whose answers are already recorded.
[[record]]
molecule = "Oc1ccccc1N=Cc1ccc(N2CCOCC2)cc1"
quantitativereadout = 10.74

[[record]]
molecule = "O=C1O[C@H]([C@@H](O)CO)C(O)=C1O [Ascorbic acid, ascorbic acid, reference compound]"
quantitativereadout = 41.72

[[record]]
molecule = "[O-]c1ccccc1N=Cc1ccc(N2CCOCC2)cc1.[O-]c1ccccc1N=Cc1ccc(N2CCOCC2)cc1.[Zn+2].c1cnc2c(c1)ccc1cccnc12 [(2b), [Zn^II(L)2(phen)]]"
quantitativereadout = 12.58


Here's the next entry for you.
Task item: Return the recorded % Inhibition, superoxide value; entry: [Cu+2].[O-]c1ccccc1N=Cc1ccc(N2CCOCC2)cc1.[O-]c1ccccc1N=Cc1ccc(N2CCOCC2)cc1.c1cnc2c(c1)ccc1cccnc12 [(1b), [Cu^II(L)2(phen)]]
Reply: 16.53

###

Test system: Chromo bacterium violaceum
assayName: Agar disc diffusion antibacterial test
conditions: C, (-) Chromo bacterium violaceum; (T–C)/T × 100
Item-by-item account of Inhibition %
Please give the number followed by its unit.

[[record]]
compound = "[O-]c1ccccc1N=Cc1ccc(N2CCOCC2)cc1.[O-]c1ccccc1N=Cc1ccc(N2CCOCC2)cc1.[Zn+2].c1cnc2c(c1)ccc1cccnc12 [(2b), [Zn^II(L)2(phen)]]"
systemtested = "Chromo bacterium violaceum"
metricname = "Inhibition %"
result = "45%"


Task item: Look up and state reported Inhibition % for [Cu+2].[O-]c1ccccc1N=Cc1ccc(N2CCOCC2)cc1.[O-]c1ccccc1N=Cc1ccc(N2CCOCC2)cc1.c1cnc2c(c1)ccc1cccnc12 [(1b), [Cu^II(L)2(phen)]]
Reply: 45%

Task item: Using the record for [H]/N=C(/N)N[C@H]1[C@H](O)[C@@H](O)[C@H](O[C@@H]2O[C@@H](C)[C@](O)(C=O)[C@H]2O[C@@H]2O[C@@H](CO)[C@H](O)[C@@H](O)[C@@H]2NC)[C@@H](N/C(N)=N\[H])[C@@H]1O [Streptomycin, reference compound] , state its measured Inhibition %.
Reply: 75%

Task item: Name the recorded Inhibition % of the item NCC[C@H](O)C(=O)N[C@@H]1C[C@H](N)[C@@H](O[C@H]2O[C@H](CN)[C@@H](O)[C@H](O)[C@H]2O)[C@H](O)[C@H]1O[C@H]1O[C@H](CO)[C@@H](O)[C@H](N)[C@H]1O [Amikacin, reference compound] in your answer.
Reply: 75%

Task item: Report Inhibition % for Oc1ccccc1N=Cc1ccc(N2CCOCC2)cc1
Reply: 45%

###

assayName: DPPH radical scavenging assay
Format: biochemical
conditions: 200 µM, 517 nm
# % Inhibition, DPPH listing for each entry below
Response body: numeric value in %, unit text excluded.

Here's what some known entries look like.
[[record]]
compound = "Oc1ccccc1N=Cc1ccc(N2CCOCC2)cc1 [(HL), 2-(4-morpholinobenzylideneamino)phenol]"
metricname = "% Inhibition, DPPH"
unitspec = "%"
quantitativereadout = 39.41

[[record]]
compound = "O=C1O[C@H]([C@@H](O)CO)C(O)=C1O [Ascorbic acid, ascorbic acid, reference compound]"
metricname = "% Inhibition, DPPH"
unitspec = "%"
quantitativereadout = 82.75

[[record]]
compound = "[O-]c1ccccc1N=Cc1ccc(N2CCOCC2)cc1.[O-]c1ccccc1N=Cc1ccc(N2CCOCC2)cc1.[Zn+2].c1cnc2c(c1)ccc1cccnc12 [(2b), [Zn^II(L)2(phen)]]"
metricname = "% Inhibition, DPPH"
unitspec = "%"
quantitativereadout = 50.12


Task item: // fetch % Inhibition, DPPH given entry [Cu+2].[O-]c1ccccc1N=Cc1ccc(N2CCOCC2)cc1.[O-]c1ccccc1N=Cc1ccc(N2CCOCC2)cc1.c1cnc2c(c1)ccc1cccnc12 [(1b), [Cu^II(L)2(phen)]]
Reply: 58.65

###

assayName: DPPH radical scavenging assay
Assay type: biochemical
conditions: 160 µM, 517 nm
metricName: % Inhibition, DPPH (%)
Your answer should be a plain number; it is taken to be in %.

Task item: Give the measured % Inhibition, DPPH for [Cu+2].[O-]c1ccccc1N=Cc1ccc(N2CCOCC2)cc1.[O-]c1ccccc1N=Cc1ccc(N2CCOCC2)cc1.c1cnc2c(c1)ccc1cccnc12 [(1b), [Cu^II(L)2(phen)]]
Reply: 52.42

Task item: For [O-]c1ccccc1N=Cc1ccc(N2CCOCC2)cc1.[O-]c1ccccc1N=Cc1ccc(N2CCOCC2)cc1.[Zn+2].c1cnc2c(c1)ccc1cccnc12 [(2b), [Zn^II(L)2(phen)]] , write its % Inhibition, DPPH.
Reply: 40.27

Task item: Check the records and state % Inhibition, DPPH for Oc1ccccc1N=Cc1ccc(N2CCOCC2)cc1
Reply: 34.56

Task item: Look up and report measured % Inhibition, DPPH for this entry: O=C1O[C@H]([C@@H](O)CO)C(O)=C1O [Ascorbic acid, ascorbic acid, reference compound]
Reply: 70.86

###

assayName: DPPH radical scavenging assay
Type: biochemical
conditions: 240 µM, 517 nm
The molecules listed here are annotated with their % Inhibition, DPPH.
Dear colleague, please send the value followed by its unit.

Here's what some known entries look like.
[[record]]
molecule = "Oc1ccccc1N=Cc1ccc(N2CCOCC2)cc1"
result = "52.45%"

[[record]]
molecule = "[Cu+2].[O-]c1ccccc1N=Cc1ccc(N2CCOCC2)cc1.[O-]c1ccccc1N=Cc1ccc(N2CCOCC2)cc1.c1cnc2c(c1)ccc1cccnc12 [(1b), [Cu^II(L)2(phen)]]"
result = "70.12%"

[[record]]
molecule = "O=C1O[C@H]([C@@H](O)CO)C(O)=C1O [Ascorbic acid, ascorbic acid, reference compound]"
result = "85.65%"


Now look at this one.
Task item: Give % Inhibition, DPPH for [O-]c1ccccc1N=Cc1ccc(N2CCOCC2)cc1.[O-]c1ccccc1N=Cc1ccc(N2CCOCC2)cc1.[Zn+2].c1cnc2c(c1)ccc1cccnc12 [(2b), [Zn^II(L)2(phen)]]
Reply: 60.66%

###

System: Escherichia coli
assayName: Agar disc diffusion antibacterial test
conditions: A, (-) Escherichia coli; (T–C)/T × 100
metricName: Inhibition % (%)
Numbers only here, please. The scale is %.

[[record]]
compound = "NCC[C@H](O)C(=O)N[C@@H]1C[C@H](N)[C@@H](O[C@H]2O[C@H](CN)[C@@H](O)[C@H](O)[C@H]2O)[C@H](O)[C@H]1O[C@H]1O[C@H](CO)[C@@H](O)[C@H](N)[C@H]1O [Amikacin, reference compound]"
systemtested = "Escherichia coli"
quantitativereadout = 73

[[record]]
compound = "Oc1ccccc1N=Cc1ccc(N2CCOCC2)cc1"
systemtested = "Escherichia coli"
quantitativereadout = 33

[[record]]
compound = "[Cu+2].[O-]c1ccccc1N=Cc1ccc(N2CCOCC2)cc1.[O-]c1ccccc1N=Cc1ccc(N2CCOCC2)cc1.c1cnc2c(c1)ccc1cccnc12 [(1b), [Cu^II(L)2(phen)]]"
systemtested = "Escherichia coli"
quantitativereadout = 33

[[record]]
compound = "[O-]c1ccccc1N=Cc1ccc(N2CCOCC2)cc1.[O-]c1ccccc1N=Cc1ccc(N2CCOCC2)cc1.[Zn+2].c1cnc2c(c1)ccc1cccnc12 [(2b), [Zn^II(L)2(phen)]]"
systemtested = "Escherichia coli"
quantitativereadout = 40


Task item: Fill in reported Inhibition % for this entry: [H]/N=C(/N)N[C@H]1[C@H](O)[C@@H](O)[C@H](O[C@@H]2O[C@@H](C)[C@](O)(C=O)[C@H]2O[C@@H]2O[C@@H](CO)[C@H](O)[C@@H](O)[C@@H]2NC)[C@@H](N/C(N)=N\[H])[C@@H]1O [Streptomycin, reference compound]
Reply: 75

###

Test system: A549 Human lung cancer cell line
assayName: MTT cell viability assay
Format: cell-based
conditions: 72 h exposure, at least three independent experiments
metricName: IC50 (µM)
Hi! Could you send only the number? It should be in µM, unit omitted.

Reference set (2 entries):
[[record]]
molecule = "N.N.[Cl][Pt][Cl] [Cisplatin, cisplatin, reference compound]"
systemtested = "A549 Human lung cancer cell line"
metricname = "IC50"
quantitativereadout = 31.9

[[record]]
molecule = "[O-]c1ccccc1N=Cc1ccc(N2CCOCC2)cc1.[O-]c1ccccc1N=Cc1ccc(N2CCOCC2)cc1.[Zn+2].c1cnc2c(c1)ccc1cccnc12 [(2b), [Zn^II(L)2(phen)]]"
systemtested = "A549 Human lung cancer cell line"
metricname = "IC50"
quantitativereadout = 32.1


--- query ---
Task item: Answer with reported IC50 of [Cu+2].[O-]c1ccccc1N=Cc1ccc(N2CCOCC2)cc1.[O-]c1ccccc1N=Cc1ccc(N2CCOCC2)cc1.c1cnc2c(c1)ccc1cccnc12 [(1b), [Cu^II(L)2(phen)]]
Reply: 29.7

###

Entries and their Relative Specific Viscosity (η/η0)^1/3 values follow.
Tested on: CT-DNA
assayName: DNA binding affinity by viscometric (hydrodynamic) titration
Design: species or system calf
conditions: R = [Complex]/[DNA] = 1.0; DNA 100 µM
Form: value (number only, do not type unit).

Examples with their reported Relative Specific Viscosity (η/η0)^1/3 follow.
[[record]]
compound = "CC[n+]1c(-c2ccccc2)c2cc(N)ccc2c2ccc(N)cc21 [EB, ethidium bromide, reference compound]"
metricname = "Relative Specific Viscosity (η/η0)^1/3"
quantitativereadout = 1.99

[[record]]
compound = "Oc1ccccc1N=Cc1ccc(N2CCOCC2)cc1"
metricname = "Relative Specific Viscosity (η/η0)^1/3"
quantitativereadout = 1.01

[[record]]
compound = "[Cu+2].[O-]c1ccccc1N=Cc1ccc(N2CCOCC2)cc1.[O-]c1ccccc1N=Cc1ccc(N2CCOCC2)cc1.c1cnc2c(c1)ccc1cccnc12 [(1b), [Cu^II(L)2(phen)]]"
metricname = "Relative Specific Viscosity (η/η0)^1/3"
quantitativereadout = 1.71


API: the following record is the query input.
Task item: Supply reported Relative Specific Viscosity (η/η0)^1/3 belonging to this compound: [O-]c1ccccc1N=Cc1ccc(N2CCOCC2)cc1.[O-]c1ccccc1N=Cc1ccc(N2CCOCC2)cc1.[Zn+2].c1cnc2c(c1)ccc1cccnc12 [(2b), [Zn^II(L)2(phen)]]
Reply: 1.53
